# Tested on: P. falciparum NF54-pfs16-GFP late (IV-V) stage gametocytes
# METHOD_DESCRIPTION: relative % inhibition of viable gametocyte number; higher = more gametocytocidal
# CONDITION_DETAILS: 0.5 µM; stage: late (IV-V) gametocyte; incubation 72 h
// label = Met if relative % inhibition is not less than 20%, otherwise Not met

Is the recorded value of relative % inhibition equal to or greater than 20% for this compound? "CC(=O)c1ccc(NC(=O)CSc2nc(-c3ccccc3Cl)ns2)cc1"
Met

Reported relative % inhibition at or above 20%? "Cc1cc(NC(=O)c2cccc(C(F)(F)F)c2)n(-c2nc(-c3ccc4c(c3)OCO4)cs2)n1"
Not met

Test whether the compound "CSc1ccccc1C(=O)Nc1nc(-c2ccccn2)cs1" records relative % inhibition of 20% or higher.
Not met

Exam item: decide whether the reported relative % inhibition for "CCOc1c(Br)cc(C2C(C(=O)OC)=CN(C)C=C2C(=O)OC)cc1OC" is at least 20%.
Not met

relative % inhibition >= 20% for CCOC(=O)C1CCN(C(=O)CN2C(=O)c3ccccc3C2c2c[nH]c3ccccc23)CC1 (stereo not given) ?
Met

---

# Tested on: P. falciparum NF54-pfs16-GFP early (I-III) stage gametocytes
# METHOD_DESCRIPTION: relative % inhibition of viable gametocyte number; higher = more gametocytocidal
# CONDITION_DETAILS: 0.5 µM; stage: early (I-III) gametocyte; incubation 72 h
Classification field: enter met for relative % inhibition values not below 10%, not met for values below it.

Does "Oc1ccc(-c2nc(-c3ccc4oc5ccc(-c6[nH]c(-c7ccc(O)cc7)nc6-c6ccccc6)cc5c4c3)c(-c3ccccc3)[nH]2)cc1" have a reported relative % inhibition of at least 10%?
met

Please check the record "CCN1CCN(c2cc(C)c3cc(NC(=O)c4ccc(OC)c(OC)c4)ccc3n2)CC1" and state if its relative % inhibition is at or above 10%.
met

Hi, just wondering whether Cc1ccc(N2C(=O)C3C(C2=O)C2(c4ccccc4)C(=O)C3(c3ccccc3)C(c3ccccc3)=C2c2ccccc2)cc1 (stereo not given) shows relative % inhibition of 10% or higher.
met

Exam item: decide whether the reported relative % inhibition for O=C(Cc1ccccc1)NC(c1ccc(Cl)cc1)c1c(O)ccc2ccccc12 (stereo not given) is at least 10%.
met

Check if relative % inhibition >= 10% (inclusive). Item: "FC(F)(F)c1ccc(Nc2nnnc3ccccc23)cc1"
not met

Determine whether measured relative % inhibition meets or exceeds 10% for C=C(C)CCC(C)N1CCC(N2CCC(C(=O)NCCc3ccccc3)CC2)CC1 (stereo not given)
not met

Please check the record CC(NCc1ccccc1)c1cc(Cl)ccc1O (stereo not given) and state if its relative % inhibition is at or above 10%.
met

Is the recorded value of relative % inhibition equal to or greater than 10% for this compound? CCC(C)NCC(O)(c1ccc(Cl)cc1)c1ccc(Cl)cc1 (stereo not given)
met

Reported relative % inhibition reaches at least 10% for "OCCNc1nc(Nc2ccc(Cl)c(Cl)c2)nc2ccccc12" ?
not met

Check this compound for relative % inhibition at or above 10%: "FC(F)(F)c1cccc(CNC2CCN(CCc3ccccc3)CC2)c1"
not met

Hi, just wondering whether "O=C(NNc1cc(N2CCCC2)nc(N2CCCC2)n1)c1ccccc1" shows relative % inhibition of 10% or higher.
not met

Decide: is the reported value of relative % inhibition for O=C(O)C1Cc2c([nH]c3ccccc23)C(c2ccc(Cl)cc2Cl)N1 (stereo not given) equal to or greater than 10%?
not met

Decide: relative % inhibition of "Oc1ccc(Cl)cc1CNc1nc2ccccc2[nH]1" >= 10%?
met

Form field: relative % inhibition at least 10%? Entry: "COc1cccc(-c2nn(C)c3sc(C(=O)NCCN4CCN(c5ccccc5F)CC4)cc23)c1"
met

Could you verify whether the entry CCOc1ccc(CN2CCN(CC(O)COc3ccc(OCC(O)CN4CCN(Cc5ccc(OCC)cc5)CC4)cc3)CC2)cc1 (stereo not given) shows relative % inhibition of no less than 10%?
not met

Exam item: decide whether the reported relative % inhibition for CC1CCCCN1CCCNC(=O)c1ccc2c(c1)sc1nc(-c3ccc(F)cc3)cn12 (stereo not given) is at least 10%.
met

Reported relative % inhibition at or above 10%? "CCc1ccc(Nc2cc(C)nc3nc(C)nn23)cc1"
not met

Given "CC(C)(C)c1ccc(C(=O)Nc2nc3ccccc3s2)cc1" , state whether its relative % inhibition is at least 10%.
not met

Quick check, relative % inhibition >= 10%? "COc1cc2cc(C(=O)Nc3ccccc3)c(N)nc2cc1OC"
met

Determine whether this compound has relative % inhibition no lower than 10%: "c1ccc(CNc2nc(Nc3ccccc3)nc3ccccc23)cc1"
met

Test whether the compound "Cc1cc(C=C2SC(=Nc3ccccc3)N(C3CCCC3)C2=O)c(C)n1-c1ccc(Cl)cc1" records relative % inhibition of 10% or higher.
met

Does the reported relative % inhibition for "COc1ccccc1C(=O)ON=C(N)Cc1cccc2ccccc12" fall at or above the 10% mark?
met

Entry "Cc1ccccc1OCCSc1nc2ccc(NC(=O)c3cccs3)cc2s1" : is its relative % inhibition no less than 10%?
met

Entry "O=c1nc(C=Cc2ccc(Br)cc2)oc2ccccc12" : is its relative % inhibition no less than 10%?
met

Please check the record "Cc1cc(N(C)C)nc(Nc2ccc(NC(=O)Nc3ccccc3)cc2)n1" and state if its relative % inhibition is at or above 10%.
met

In plain terms: is recorded relative % inhibition at least 10% for CC(C)c1ccc(CNCC(O)c2ccccc2)cc1 (stereo not given) ?
not met

Given the entry "C=CCc1c(C)nc2ccccc2c1O" , answer whether its relative % inhibition meets or surpasses 10%.
not met

Is reported relative % inhibition greater than or equal to 10% here: CCCCCn1c(=N)n(CC(O)COc2cccc(C)c2)c2ccccc21 (stereo not given)
met

# check: relative % inhibition of "COc1ccc(C2N(C)c3ccccc3N2C)cc1" is greater than or equal to 10%
met

Would you say "O=C(Nc1ccc(N2CCN(Cc3ccccc3)CC2)cc1)c1cccs1" shows relative % inhibition at minimum 10%?
met

Textbook exercise: given the entry "CCN1CCN(c2c(C(=O)c3ccccc3)cnc3cc(OC)c(OC)cc23)CC1" , state whether its relative % inhibition is greater than or equal to 10%.
not met

Could you please find out whether "CCOC(=O)c1cn(CC)c2cc(N3CCCCC3)c(F)cc2c1=O" has relative % inhibition that meets 10% or exceeds it?
met

Dear colleague, could you confirm whether "COc1ccc(C=C2SC(Nc3ccccc3)=NC2=O)cc1" has relative % inhibition at or above 10%?
met

Tell me whether relative % inhibition is at least 10% here: "CCOc1ccc(N2C(N)=NC(N)=NC2(C)C)cc1"
not met

Answer whether relative % inhibition of "CCOc1ccc2nc(C)cc(Nc3ccc(Br)cc3)c2c1" is greater than or equal to 10%.
met

Given COc1ccc(C(=O)C(CCC(CNC(C)(C)C)C(=O)c2ccc(OC)cc2)CNC(C)(C)C)cc1 (stereo not given) , state whether its relative % inhibition is at least 10%.
met

Kindly determine if relative % inhibition recorded for "COc1ccc2c(=O)cc(C(Cl)(Cl)Cl)oc2c1" is above or exactly 10%.
met

Form field: relative % inhibition at least 10%? Entry: OC(CNCc1ccccc1)Cn1c2ccccc2c2ccccc21 (stereo not given)
not met

Form field: relative % inhibition at least 10%? Entry: "CSc1ccccc1C(=O)Nc1nc(-c2ccccn2)cs1"
met

Tell me whether relative % inhibition is at least 10% here: "CC1=C(CC(=O)c2cccc([N+](=O)[O-])c2)C(=O)c2ccccc2C1=O"
met

Does the reported relative % inhibition for CCOc1cc2c(cc1OCC)C(c1cc(Cl)c(O)c(OCC)c1)NCC2 (stereo not given) fall at or above the 10% mark?
not met

Does the reported relative % inhibition for "CCCc1c(C)nc2ccccc2c1O" fall at or above the 10% mark?
not met

Values were extracted from the supplement of paper PMC3842684.
